Test system: OVCAR-8 ovarian
Assay: NCI tumour cell line growth inhibition, 48 h; in the data active = GI50 below about 0.43 µM; inactive = the rest
Log the outcome using a class from Yes for active, No for inactive

The examples below pair each entry with its known result.
[[record]]
molecule = "O=C(Nc1ccccc1)NS(=O)(=O)c1ccc(-n2nc3c(c2-c2cccs2)Cc2ccccc2-3)cc1"
tested_target = "OVCAR-8 ovarian"
label_value = "No"

[[record]]
molecule = "O=C(Nc1ccccc1OC(F)(F)F)Nc1n[nH]c2ccccc12"
tested_target = "OVCAR-8 ovarian"
label_value = "No"

[[record]]
molecule = "Cn1c2ccccc2c2c(Nc3ccccc3)c3ccccc3nc21"
tested_target = "OVCAR-8 ovarian"
label_value = "No"

[[record]]
molecule = "NC(=O)c1sc(-n2cnc3ccccc32)cc1OCc1ccccc1Br"
tested_target = "OVCAR-8 ovarian"
label_value = "No"

[[record]]
molecule = "COC1=CC(c2ccc[nH]2)=N/C1=C\\c1[nH]c(C)c(C(=O)OC(C)C)c1C"
tested_target = "OVCAR-8 ovarian"
label_value = "Yes"

[[record]]
molecule = "COc1cc(CNc2cnc3cc(N)cc(N)c3n2)cc(OC)c1"
tested_target = "OVCAR-8 ovarian"
label_value = "No"

[[record]]
molecule = "CO[C@H](C(=O)[C@@H](O)[C@@H](C)O)[C@@H]1Cc2cc3cc(O[C@H]4C[C@@H](O[C@H]5C[C@@H](O)[C@H](O)C(C)O5)[C@H](O)C(C)O4)c(C)c(O)c3c(O)c2C(=O)[C@H]1O[C@H]1C[C@@H](O[C@H]2C[C@@H](O[C@H]3C[C@](C)(O)C(=O)C(C)O3)[C@@H](O)C(C)O2)[C@H](O)C(C)O1 (stereo not given in full)"
tested_target = "OVCAR-8 ovarian"
label_value = "Yes"

[[record]]
molecule = "CCCCCN(CCCCC)CCCNc1c2c(nc3ccc(Cl)cc13)CCCC2"
tested_target = "OVCAR-8 ovarian"
label_value = "No"


[in] Assay result, entry NC(Cc1c[nH]c2c(O)cccc12)C(=O)O (stereo not given) — outcome?
[out] No

[in] Just curious, what result did `C#Cc1ccc(-n2c(/C=C/c3ccc(C(F)(F)F)cc3)nc3ncccc3c2=O)cc1` get here?
[out] No

[in] How did this test come out for `CC1(C)CCc2c(c3c(c4c(=O)c(O)c(-c5ccc(O)cc5)oc24)OC(C)(C)CC3)O1` ?
[out] No

[in] Tell me the assay call for CC[C@@]1(O)C[C@H](OC2CC(N(C)C)C(O)C(C)O2)c2c(O)c3c(c(O)c2[C@H]1OC1CC(N(C)C)C(O)C(C)O1)C(=O)c1cccc(O)c1C3=O (stereo not given in full) please.
[out] Yes

[in] Just curious, what result did CSc1nc2c(c(=O)[nH]1)N=C1c3ccccc3C(=O)C1C(c1ccccc1)N2 (stereo not given) get here?
[out] No

[in] Check the results log: what was the call for `COC1=CC(=O)c2nc(-c3ccncc3)[nH]c2C1=O` ?
[out] No

[in] Would you mind telling me which call this test gave `CC/C=C\CCC/C=C1/C(=O)C=C[C@@H]1C/C=C\CCCC(=O)OC` ?
[out] No
